Data origin, for the record: ChEMBL document CHEMBL1155148

# experimentalProtocol: AUC (0 to 24 hrs) in human with MDR1 3435 CC genotype at 400 mg, po once daily after 14 days coadministered with rifampin at 600 […], po once daily
# Type: ADME, organism-based
# Set-up: time < 24 hr, route oral
# conditionsUsed: plasma
propertyMeasured: AUC at 24 h (µg·h/mL)
Give a bare numeral; the unit µg·h/mL is implied.

Query string: Which value of AUC at 24 h has been reported for COc1c(N2C[C@@H]3CCCN[C@@H]3C2)c(F)cc2c(=O)c(C(=O)O)cn(C3CC3)c12 in the records?
Result string: 25.5

* * *

# experimentalProtocol: Plasma concentration in human with MDR1 3435 CC or CT genotype at 400 mg, po once daily after 4 days
# Format: ADME, organism-based
propertyMeasured: concentration at 96 h (ng/mL)
Give a bare numeral; the unit ng/mL is implied.

Query string: // concentration at 96 h lookup, key: COc1c(N2C[C@@H]3CCCN[C@@H]3C2)c(F)cc2c(=O)c(C(=O)O)cn(C3CC3)c12 [MOXIFLOXACIN]
Result string: 3810

* * *

# experimentalProtocol: Tmax in human at 400 mg, po once daily after 14 days coadministered with rifampin at 600 mg, po once daily
# Format: ADME, organism-based
# conditionsUsed: in vivo
propertyMeasured: Tmax (h)
The reply should be a number in h, with the unit left off.

Query string: I'd like to know its Tmax. The compound in question is COc1c(N2C[C@@H]3CCCN[C@@H]3C2)c(F)cc2c(=O)c(C(=O)O)cn(C3CC3)c12 [MOXIFLOXACIN]
Result string: 1.56

* * *

# experimentalProtocol: AUC (0 to 24 hrs) in human with MDR1 3435 CT or TT genotype at 400 mg, po once daily after 14 days coadministered with rifampin at 600 mg, po once daily
# conditionsUsed: plasma
propertyMeasured: AUC at 24 h (ng·h/mL)
Expressed in ng·h/mL, but write only the number.

Query string: Recorded AUC at 24 h of COc1c(N2C[C@@H]3CCCN[C@@H]3C2)c(F)cc2c(=O)c(C(=O)O)cn(C3CC3)c12 [MOXIFLOXACIN] , please.
Result string: 30300

* * *

# experimentalProtocol: Plasma concentration in human at 400 mg, po once daily after 4 days
# Format: ADME, organism-based
propertyMeasured: concentration at 96 h
Value and unit, in that order.

Query string: Entry COc1c(N2C[C@@H]3CCCN[C@@H]3C2)c(F)cc2c(=O)c(C(=O)O)cn(C3CC3)c12 has what concentration at 96 h?
Result string: 3800 ng/mL

* * *

# experimentalProtocol: Tmax in human with MDR1 3435 CC or CT genotype at 400 mg, po once daily after 4 days
# Format: ADME, organism-based
# conditionsUsed: in vivo
propertyMeasured: Tmax (h)
Quick reminder: number only, in h, skip the unit.

Query string: I am curious: what Tmax value has been reported for COc1c(N2C[C@@H]3CCCN[C@@H]3C2)c(F)cc2c(=O)c(C(=O)O)cn(C3CC3)c12 ?
Result string: 1.91

* * *

# experimentalProtocol: Tmax in human with MDR1 3435 CC genotype at 400 mg, po once daily after 14 days coadministered with rifampin at 600 […], po once daily
# Format: ADME, organism-based
# Set-up: route oral
# conditionsUsed: in vivo
propertyMeasured: Tmax

Query string: // query Tmax value for entry COc1c(N2C[C@@H]3CCCN[C@@H]3C2)c(F)cc2c(=O)c(C(=O)O)cn(C3CC3)c12 [MOXIFLOXACIN]
Result string: 1.98 h

* * *

# experimentalProtocol: Tmax in human with MDR1 3435 CC genotype at 400 mg, po once daily after 4 days
# Assay type: ADME, organism-based
# conditionsUsed: in vivo
propertyMeasured: Tmax (h)
Response body: numeric value in h, unit text excluded.

Query string: What value of measured Tmax is listed for COc1c(N2C[C@@H]3CCCN[C@@H]3C2)c(F)cc2c(=O)c(C(=O)O)cn(C3CC3)c12 ?
Result string: 1.47

* * *

# experimentalProtocol: Plasma concentration in human with MDR1 3435 CC genotype at 400 mg, po once daily after 14 days coadministered with rifampin at 600 […], po once daily
# Assay type: ADME, organism-based
# Parameters: route oral
propertyMeasured: concentration at 336 h (ng/mL)
Field format: number, assumed ng/mL, no unit text.

Query string: Data request, read-out concentration at 336 h, for COc1c(N2C[C@@H]3CCCN[C@@H]3C2)c(F)cc2c(=O)c(C(=O)O)cn(C3CC3)c12
Result string: 2940

* * *

# experimentalProtocol: Plasma concentration in human at 400 mg, po once daily after 14 days coadministered with rifampin at 600 mg, po once daily
# Assay type: ADME, organism-based
propertyMeasured: concentration at 336 h (ng/mL)
Your answer should be a plain number; it is taken to be in ng/mL.

Query string: # get_value(readout='concentration at 336 h', item= COc1c(N2C[C@@H]3CCCN[C@@H]3C2)c(F)cc2c(=O)c(C(=O)O)cn(C3CC3)c12 )
Result string: 3600

* * *

# experimentalProtocol: AUC (0 to 24 hrs) in human at 600 mg, po once daily after 14 days coadministered with moxifloxacin at 400 mg, po once daily
# Format: ADME, organism-based
# Parameters: dose 600 mg, time < 24 hr, route oral
# conditionsUsed: plasma
propertyMeasured: AUC at 24 h (ng·h/mL)
Provide the reading as a plain figure in ng·h/mL.

Query string: Can you look up the measured AUC at 24 h of CO[C@H]1/C=C/O[C@@]2(C)Oc3c(C)c(O)c4c(O)c(c(/C=N/N5CCN(C)CC5)c(O)c4c3C2=O)NC(=O)/C(C)=C\C=C\[C@H](C)[C@H](O)[C@@H](C)[C@@H](O)[C@@H](C)[C@H](OC(C)=O)[C@@H]1C [RIFAMPIN] for me?
Result string: 44000

* * *

# experimentalProtocol: Plasma concentration in human at 600 mg, po once daily after 14 days coadministered with moxifloxacin at 400 mg, po once daily
# Assay type: ADME, organism-based
propertyMeasured: concentration at 336 h (ng/mL)
State just the number; it will be interpreted in ng/mL.

Query string: Could you share which concentration at 336 h value was measured for CO[C@H]1/C=C/O[C@@]2(C)Oc3c(C)c(O)c4c(O)c(c(/C=N/N5CCN(C)CC5)c(O)c4c3C2=O)NC(=O)/C(C)=C\C=C\[C@H](C)[C@H](O)[C@@H](C)[C@@H](O)[C@@H](C)[C@H](OC(C)=O)[C@@H]1C [RIFAMPIN] ?
Result string: 9900

* * *

# experimentalProtocol: Tmax in human with MDR1 3435 CC or CT genotype at 400 mg, po once daily after 14 days coadministered with rifampin at 600 […], po once daily
# Assay type: ADME, organism-based
# Parameters: route oral
# conditionsUsed: in vivo
propertyMeasured: Tmax (h)
Your answer should be a plain number; it is taken to be in h.

Query string: Fill in the blank: the reported Tmax of COc1c(N2C[C@@H]3CCCN[C@@H]3C2)c(F)cc2c(=O)c(C(=O)O)cn(C3CC3)c12 is ____.
Result string: 1.05

* * *

# experimentalProtocol: AUC (0 to 24 hrs) in human with MDR1 3435 CC genotype at 400 mg, po once daily after 4 days
# Type: ADME, organism-based
# Parameters: dose 400 mg, time < 24 hr, route oral
# conditionsUsed: plasma
propertyMeasured: AUC at 24 h

Query string: // AUC at 24 h lookup, key: COc1c(N2C[C@@H]3CCCN[C@@H]3C2)c(F)cc2c(=O)c(C(=O)O)cn(C3CC3)c12
Result string: 37200 ng·h/mL

* * *

# experimentalProtocol: AUC (0 to 24 hrs) in human at 400 mg, po once daily after 14 days coadministered with rifampin at 600 mg, po once daily
# Format: ADME, organism-based
# Set-up: dose 400 mg, time < 24 hr, route oral
# conditionsUsed: plasma
propertyMeasured: AUC at 24 h (ng·h/mL)
// return numeric value only (unit: ng·h/mL, not printed)

Query string: Query: AUC at 24 h; subject: COc1c(N2C[C@@H]3CCCN[C@@H]3C2)c(F)cc2c(=O)c(C(=O)O)cn(C3CC3)c12 [MOXIFLOXACIN]
Result string: 29200

* * *

# experimentalProtocol: Plasma concentration in human with MDR1 3435 CC or CT genotype at 400 mg, po once daily after 14 days coadministered with rifampin at 600 […], po once daily
# Assay type: ADME, organism-based
# Design: route oral
propertyMeasured: concentration at 336 h (ng/mL)
Number in ng/mL, nothing else.

Query string: Please report the recorded concentration at 336 h for COc1c(N2C[C@@H]3CCCN[C@@H]3C2)c(F)cc2c(=O)c(C(=O)O)cn(C3CC3)c12 .
Result string: 3830
